Entry source: ChEMBL document CHEMBL1140970

Test system: Helicobacter pylori
Assay: Antibacterial activity against Helicobacter pylori clinical isolates at 0.5 ug/disk after 3 to 5 days by filter paper disk diffusion method
Type: functional
Conditions: read-out: IZ
Measured Endpoint: zone of inhibition at 0.5 µg/disc

INSERT INTO measurements (smiles_notation, endpoint_result) VALUES
  ('Cn1c([N+](=O)[O-])cnc1-c1nnc(N2CCOCC2)s1', '13.7 mm'),
  ('O=[N+]([O-])c1ccc(-c2nnc(N3CC[S+]([O-])CC3)s2)s1', '13.7 mm'),
  ('Cn1c([N+](=O)[O-])cnc1-c1nnc(N2CCS(=O)(=O)CC2)s1', '10.6 mm'),
  ('O=[N+]([O-])c1ccc(-c2nnc(N3CCSCC3)s2)o1', '10.8 mm'),
  ('O=[N+]([O-])c1ccc(-c2nnc(N3CC[S+]([O-])CC3)s2)o1', '7.3 mm'),
  ('O=[N+]([O-])c1ccc(-c2nnc(N3CCOCC3)s2)o1', '10.8 mm'),
  ('O=[N+]([O-])c1ccc(-c2nnc(N3CCCCC3)s2)o1', '13.7 mm'),
  ('O=[N+]([O-])c1ccc(-c2nnc(N3CCS(=O)(=O)CC3)s2)o1', '16.6 mm'),
  ('Cn1c([N+](=O)[O-])cnc1-c1nnc(N2CCSCC2)s1', '9.9 mm');
